testedTarget: plasma purified human complement protein C3 (human) (UniProt P01024)
Sequence (P01024 23-667, chain 1 of 2): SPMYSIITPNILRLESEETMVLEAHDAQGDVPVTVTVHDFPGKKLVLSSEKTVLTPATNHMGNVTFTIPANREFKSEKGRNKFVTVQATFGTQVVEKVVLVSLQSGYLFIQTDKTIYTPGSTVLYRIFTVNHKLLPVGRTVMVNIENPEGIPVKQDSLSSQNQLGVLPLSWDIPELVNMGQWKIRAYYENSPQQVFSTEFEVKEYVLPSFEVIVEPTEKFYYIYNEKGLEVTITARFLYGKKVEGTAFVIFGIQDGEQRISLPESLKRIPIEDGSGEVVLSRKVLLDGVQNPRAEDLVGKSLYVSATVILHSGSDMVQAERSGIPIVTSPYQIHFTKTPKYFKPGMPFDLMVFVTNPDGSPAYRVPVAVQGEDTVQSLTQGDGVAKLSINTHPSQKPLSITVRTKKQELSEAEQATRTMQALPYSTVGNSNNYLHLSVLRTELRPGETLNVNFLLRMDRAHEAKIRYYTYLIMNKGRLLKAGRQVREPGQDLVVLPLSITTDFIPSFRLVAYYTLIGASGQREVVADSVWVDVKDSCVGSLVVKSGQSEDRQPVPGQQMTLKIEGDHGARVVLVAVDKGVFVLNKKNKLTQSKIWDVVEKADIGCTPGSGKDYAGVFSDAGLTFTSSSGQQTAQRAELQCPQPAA
Sequence (P01024 672-1663, chain 2 of 2): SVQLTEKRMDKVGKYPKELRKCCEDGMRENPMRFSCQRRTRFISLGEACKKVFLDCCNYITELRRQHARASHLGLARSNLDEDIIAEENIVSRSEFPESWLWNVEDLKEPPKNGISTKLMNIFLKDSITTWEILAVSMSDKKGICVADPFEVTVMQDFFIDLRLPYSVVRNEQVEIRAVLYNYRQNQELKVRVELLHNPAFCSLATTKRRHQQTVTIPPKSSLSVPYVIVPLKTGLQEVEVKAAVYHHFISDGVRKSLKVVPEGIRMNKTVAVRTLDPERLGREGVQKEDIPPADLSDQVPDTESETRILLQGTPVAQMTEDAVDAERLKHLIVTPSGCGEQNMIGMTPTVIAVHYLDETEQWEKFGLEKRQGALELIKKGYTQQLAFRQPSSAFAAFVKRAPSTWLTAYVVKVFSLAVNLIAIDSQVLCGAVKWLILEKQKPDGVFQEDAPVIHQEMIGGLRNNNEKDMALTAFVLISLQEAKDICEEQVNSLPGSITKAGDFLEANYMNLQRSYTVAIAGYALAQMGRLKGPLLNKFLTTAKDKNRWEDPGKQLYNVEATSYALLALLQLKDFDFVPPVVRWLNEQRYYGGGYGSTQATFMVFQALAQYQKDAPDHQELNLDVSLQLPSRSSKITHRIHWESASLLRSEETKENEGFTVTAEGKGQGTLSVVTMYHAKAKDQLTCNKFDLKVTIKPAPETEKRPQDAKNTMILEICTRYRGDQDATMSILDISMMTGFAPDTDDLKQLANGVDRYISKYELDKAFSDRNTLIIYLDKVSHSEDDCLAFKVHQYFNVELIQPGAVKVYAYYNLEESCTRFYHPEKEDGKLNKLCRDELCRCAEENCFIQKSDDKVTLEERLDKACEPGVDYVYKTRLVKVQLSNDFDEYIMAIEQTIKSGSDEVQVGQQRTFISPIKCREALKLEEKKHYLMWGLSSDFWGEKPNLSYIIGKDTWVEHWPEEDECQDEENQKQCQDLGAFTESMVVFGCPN
runDescription: cell-based or functional assay
Kindly state EC50 hC3 cleavage for each of the entries shown.
Give a bare numeral; the unit nM is implied.

Record MTSP-1 protease domain I41S/F99M/C122S/G151N/Q175E/Q192R (enzyme) VVGGTDADEGEWPWQVSLHALGQGHSCGASLISPNWLVSAAHCYIDDRGFRYSDPTQWTAFLGLHDQSQRSAPGVQERRLKRIISHPFFNDFTMDYDIALLELEKPAEYSSMVRPISLPDASHVFPAGKAIWVTGWGHTQYGGTNALILQKGEIRVINQTTCENLLPQEITPRMMCVGFLSGGVDSCRGDSGGPLSSVEADGRIFQAGVVSWGDGCAQRNKPGVYTRLPLFRDWIKENTGV , field EC50 hC3 cleavage: 297

Record MTSP-1 protease domain Q38H/I41A/D60bV/F60eR/Y60gW/D96P/ins97aN/F97W/T98G/F99L/C122S/G151H/Q175L/Q192E (enzyme) VVGGTDADEGEWPWQVSLHALGHGHACGASLISPNWLVSAAHCYIDVRGRRWSDPTQWTAFLGLHDQSQRSAPGVQERRLKRIISHPFFNPWNGLDYDIALLELEKPAEYSSMVRPISLPDASHVFPAGKAIWVTGWGHTQYGGTHALILQKGEIRVINQTTCENLLPQLITPRMMCVGFLSGGVDSCEGDSGGPLSSVEADGRIFQAGVVSWGDGCAQRNKPGVYTRLPLFRDWIKENTGV , field EC50 hC3 cleavage: 1.11

Record MTSP-1 protease domain I41E/F97V/F99L/C122S/G151N/Q175L/Q192S/D217H (enzyme) VVGGTDADEGEWPWQVSLHALGQGHECGASLISPNWLVSAAHCYIDDRGFRYSDPTQWTAFLGLHDQSQRSAPGVQERRLKRIISHPFFNDVTLDYDIALLELEKPAEYSSMVRPISLPDASHVFPAGKAIWVTGWGHTQYGGTNALILQKGEIRVINQTTCENLLPQLITPRMMCVGFLSGGVDSCSGDSGGPLSSVEADGRIFQAGVVSWGHGCAQRNKPGVYTRLPLFRDWIKENTGV , field EC50 hC3 cleavage: 49.4
